System: NCI/ADR-RES ovarian
Assay Notes: NCI tumour cell line growth inhibition, 48 h
Recorded TGI for the following compounds

Here's what some known entries look like.
1. N[C@@H](CCC(=O)NCP(=O)(O)O)C(=O)O | > 100 µM
2. C#CCn1c(=O)c2ccccc2n(CC#C)c1=O | > 10 µM

Query: Data request, read-out TGI, for CC(=O)Nn1c(=S)[nH]c2ccccc21
Result: > 100 µM

----------
System: PC-3 prostate
Assay Notes: NCI tumour cell line growth inhibition, 48 h
Recorded GI50 for the following compounds

1) Nc1ccc(C2=NNC(=O)Cc3cc4c(cc32)OCCO4)cc1Cl | 7940 nM
2) COc1cccc(-c2nc(-c3ccc(NC(=O)OC(C)C)cc3)[nH]c2-c2ccnc(Br)c2)c1 | 2620 nM
3) O=C(Oc1ccc(Cl)cc1)c1ccccc1Nc1ccnc(C(F)(F)F)c1 | 17000 nM
4) CCCCCCCCCCn1cc[n+](C)c1 | 1030 nM
5) CN1CC[C@@H](NC(=O)Nc2ccc(C#N)cc2)C[C@@H]1c1nc2ccccc2[nH]1 | > 100000 nM

Okay, next one:
Query: Return GI50 measured with PC-3 prostate given this compound: Nc1n[nH]c2cc(F)c([C@@H]3Nc4ccc5[nH]ncc5c4[C@H]4C5CCC(C5)[C@@H]34)cc12 (stereo partly specified)
Result: 238 nM

----------
Tested on: IGROV1 ovarian
Assay Notes: NCI tumour cell line growth inhibition, 48 h
Recorded TGI for the following compounds

Here's what some known entries look like.
1) CC1SC(c2ccc(F)cc2)N(NC(=O)C(O)c2ccccc2)C1=O (stereo not given) | > 100 µM
2) CCCCCCCCCCCCC(O)c1ccc(C#CCCCCCCCCCO)o1 (stereo not given) | 51.8 µM
3) C#CCn1c(=O)c2ccccc2n(CC#C)c1=O | > 10 µM
4) O=C(/C=C/c1ccc2c(c1)OCO2)Cc1nc2ncccc2[nH]c1=O | > 100 µM
5) CC(C)[C@@H]1C=C2CC[C@H]3[C@](C)(CN)CCC[C@]3(C)[C@H]2CC1 | 4.09 µM
6) COc1ccc(C2[C@@H](c3ccccc3)C(=O)N2c2cc(OC)c(OC)c(OC)c2)cc1F (stereo not given in full) | > 100 µM
7) COc1cc(S(=O)(=O)Nc2nc(-c3ccc(N4C(=O)C(CC(=O)O)SC4c4cccs4)cc3)cs2)ccc1Cl (stereo not given) | 66 µM
8) CCOC(=S)SCC(=O)O | > 100 µM

Query: Return TGI measured with IGROV1 ovarian given this compound: CCN(CC)CCNC(=O)c1cc2cc(NC(=O)c3cc4cc([N+](=O)[O-])ccc4[nH]3)ccc2[nH]1
Result: > 100 µM

Query: Param item: COC(=O)C1=C(C(=O)OC)SC(=C2SCSC3=C2SC(C(=O)OC)=C(C(=O)OC)C32SC3=C(CCCC3)S2)S1
Result: > 100 µM

----------
Tested on: M14 melanoma
Assay Notes: NCI tumour cell line growth inhibition, 48 h; in the data active = GI50 below about 0.43 µM; inactive = the rest
Select the matching outcome among 1.0 = active, 0.0 = inactive

1. COc1ccc(CN2C(=O)/C(=C\c3cc(OC)c(OC)c(OC)c3)c3ccccc32)cc1 | 0.0
2. O=C(/C(=C/c1ccc([N+](=O)[O-])cc1)SCc1ccccc1)c1ccc(Cl)cc1 | 0.0
3. Cc1ccc(-n2c3nc(=O)[nH]c(=O)c-3cc3cc([N+](=O)[O-])ccc32)cc1 | 0.0
4. COc1cccc(-c2nc(-c3ccc(NC(=O)OC(C)C)cc3)[nH]c2-c2ccnc(Br)c2)c1 | 0.0
5. O=C(CCCSc1nc(-c2ccccc2)cc(-c2ccccc2)n1)NO | 0.0
6. CCOC(=O)C1=C(C)N(c2ccc(F)cc2F)[C@]2(C#N)C(O)=C(Cl)C(Cl)=C(O)[C@]12C#N | 0.0

Query: Which outcome was assigned to O=C1c2cc3c(cc2-c2c1c1ccc(F)cc1c(=O)n2C[C@H](O)[C@@H](O)[C@H](O)CO)OCO3 in this test?
Result: 1.0
